system: CP265; assay: qHTS profiling for inhibitors of Plasmodium falciparum proliferation (AID 504749); also: nearly all actives have a fitted effect of over 60% in size; conditions: P. falciparum in erythrocytes, SYBR Green DNA, 72 h; series mostly up to 28.7 µM
Results filed as inconclusive are left out. Activity calls are given as the source filed them. Calls follow the shape of the dose curve; as a rule, active = well fitted inhibition curve with a large enough effect; inconclusive = small, poorly fitted or top-dose-only effect; inactive = flat fitted curve, though single readings scatter.

compound	outcome
O=c1[nH]c(=O)n(C2C[C@H](O)[C@@H](CO)O2)cc1C(F)(F)F (stereo partly drawn)	inactive
C[C@@H]1CC2[C@@H]3C[C@H](F)C4=CC(=O)C(Cl)=C[C@]4(C)[C@@]3(F)[C@H](O)C[C@]2(C)[C@@]1(O)C(=O)CO (stereo partly drawn)	inactive
C[C@]12CCC(=O)C=C1[C@@H]1C[C@H]1[C@H]1[C@@H]3[C@@H]4C[C@H]4[C@@]4(CCC(=O)O4)[C@@]3(C)CC[C@@H]12	inactive
CC1OC(OC2CCC3(C)C(CCC4C3CC(O)C3(C)C(C5=CC(=O)OC5)CCC43O)C2)CC(O)C1OC1CC(O)C(OC2CC(O)C(OC3OC(CO)C(O)C(O)C3O)C(C)O2)C(C)O1 (stereo not drawn)	inactive
CC(=O)OCC(=O)[C@@]1(O)CCC2C3C[C@H](C)C4=CC(=O)C=CC4(C)C3C(O)CC21C (stereo partly drawn)	inactive
Cc1ccc(S(=O)(=O)NC(=O)NC(C)Cc2ccccc2)cc1 (stereo not drawn)	inactive
O=C(O)C[CH2][Ge](=[O])[O][Ge](=[O])[CH2]CC(=O)O	inactive
CC1CCC(O)C/C1=C\C=C1/CCCC2(C)C1CCC2C(C)/C=C/C(C)C(C)C (stereo not drawn)	inactive

====

system: CP211; assay: qHTS profiling for inhibitors of Plasmodium falciparum proliferation (AID 504749); also: nearly all actives have a fitted effect of over 60% in size; details: P. falciparum in erythrocytes, SYBR Green DNA, 72 h; series mostly up to 28.7 µM
Results filed as inconclusive are left out. Activity calls are given as the source filed them. The call rests on the fitted dose curve; in most records, active means well fitted inhibition curve with a large enough effect; inconclusive means small, poorly fitted or top-dose-only effect; inactive means flat fitted curve, though single readings scatter.
Labels: active, inactive

compound	measured_target	group
Nc1nc2[nH]cc(CCc3ccc(C(=O)NC(CCC(=O)O)C(=O)O)cc3)c2c(=O)[nH]1 (configuration not stated)	CP211	active
CO/N=C(/C(=O)N[C@@H]1C(=O)N2C(C(=O)O)=C(CSc3nc(C)c(CC(=O)O)s3)CS[C@H]12)c1csc(N)n1	CP211	inactive
CCC(C(=O)C(C)C(O)C(C)CCc1ccc(C)c(O)c1C(=O)O)C1OC(CC)(C2CC[C@@](O)(CC)C(C)O2)CC1C (some centres not stated)	CP211	active
Cc1onc(-c2c(F)cccc2Cl)c1C(=O)NC1C(=O)N2C1SC(C)(C)C2C(=O)O (configuration not stated)	CP211	inactive
CCCCCOC(=O)Nc1nc(=O)n(C2O[C@H](C)[C@@H](O)[C@@H]2O)cc1F (some centres not stated)	CP211	inactive
CC1CCC(C(C)C)C(O)C1 (configuration not stated)	CP211	inactive
CO[C@H]1OC2O[C@@]3(C)CC[C@H]4[C@H](C)CC[C@@H]([C@H]1C)[C@@]24OO3 (some centres not stated)	CP211	active
CCCC(=O)O[C@]1(C(=O)COC(C)=O)CC[C@H]2C3C[C@H](F)C4=CC(=O)C=CC4(C)[C@@]3(F)[C@@H](O)CC21C (some centres not stated)	CP211	inactive
C[C@]12CC[C@@H]3c4ccc(O)cc4CC[C@H]3[C@@H]1C[C@H](O)C2O (some centres not stated)	CP211	inactive
CNC(=O)C(N)CSC(C)C1=C(C)c2cc3[n-]c(cc4nc(cc5[n-]c(cc1n2)c(C)c5CCC(=O)O)C(CCC(=O)O)=C4C)c(C)c3C(C)SCC(N)C(=O)NC.[Fe+2] (configuration not stated)	CP211	inactive
COC(=O)C1[C@@H](OC)C(OC(=O)COc2ccc(OC)cc2)C[C@@H]2CN3CCc4c([nH]c5cc(OC)ccc45)[C@H]3C[C@H]12 (some centres not stated)	CP211	inactive
CNC1C(O)C(OC2C(NC(=O)C(O)CN)CC(N)C(OC3OC(CN)C(O)C(O)C3O)C2O)OCC1(C)O (configuration not stated)	CP211	inactive
CC[C@@H](C)C(N)C(=O)O (some centres not stated)	CP211	inactive
O=c1ccn(C2OC(COP(=O)(O)OC3C(CO)OC(n4ccc(=O)[nH]c4=O)C3O)C(O)C2O)c(=O)[nH]1 (configuration not stated)	CP211	inactive
CC[C@H](C)[C@H]1O[C@]2(CC[C@@H]1C)C[C@@H]1C[C@@H](C/C=C(\C)[C@H](O[C@@H]3C[C@H](OC)[C@H](O[C@@H]4C[C@H](OC)[C@@H](O)[C@H](C)O4)[C@H](C)O3)[C@@H](C)/C=C/C=C3\CO[C@@H]4[C@H](O)C(C)=C[C@@H](C(=O)O1)[C@]34O)O2	CP211	active
O=[N+]([O-])O[C@H]1CO[C@H]2[C@@H]1OC[C@H]2O	CP211	inactive
CC1OC(OC2C(O)CC(OC3C(O)CC(OC4CCC5(C)C(CCC6C5CCC5(C)C(C7=CC(=O)OC7)CCC65O)C4)OC3C)OC2C)CC(O)C1O (configuration not stated)	CP211	inactive

====

Known activity, negative = inhibition of a selection of molecules
Assay: Stat Signaling Pathway (AID 446);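 also: ME-180 cervical cancer cells given 40 pM IL-6 alongside compound; SIE-controlled beta-lactamase reporter measured as 460/530 nm FRET emission ratio; % is scaled to controls: 0 for no effect and ±100 for the full control effect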
Conditions: ME-180 (cervical carcinoma) SIE beta-lactamase reporter, IL-6 stimulated, 5 h; at 17.2 µM (top of the series) unless noted
Protocol: NCGC Assay Overview: The IL-6/STAT signaling pathway was assayed in ME-180 cervical carcinoma cells by a beta-lactamase reporter gene controlled by a STAT Inducible Element (SIE). This reporter is induced by IL-6 at 40 pM AC50 and inhibited by the pan JAK inhibitor, 2-(1,1-Dimethylethyl)-9-fluoro-3,6-dihydro-7H-benz[h]-imidaz[4,5-f]isoquinolin-7-one, at approximately 10 nM AC50. Plated cells were incubated overnight and on the following day, stimulated with 40 pM IL-6 for 5 hrs. […]
Results filed as inconclusive are left out. The source made the active and inactive calls. Calls come from the whole dose curve; as a rule, active = well fitted curve in either direction with a large enough effect (not every such curve was filed as active); inconclusive = small, poorly fitted or top-dose-only effect, or another doubt; inactive = flat fitted curve, though single readings scatter.
property: activity, negative = inhibition

>>> print(df.to_string())
                                    molecule                     obs_value
 0     CN(C)c1nc2sc3c(c2c(=O)n1C)CC(C)(C)OC3              10.9% (inactive)
 1      CN1CCN(CC(=O)Nc2nc(-c3ccccc3)cs2)CC1             -4.84% (inactive)
 2  CCOC(=O)C1=C(c2ccccc2)NC(SCC(=O)Nc2ccccc2C)=C(C#N)C1c1ccco1 (stereo not given)             -9.31% (inactive)
 3    CC1(C)Cc2c(sc3nc4n(c(=N)c23)CCCCC4)CO1              3.32% (inactive)
 4  CCN=C1SC(C(=O)Nc2ccc(Cl)c(Cl)c2)CC(=O)N1CC (stereo not given)              4.81% (inactive)
 5  CCOC(=O)CC(=O)CSc1nc(N)c(C#N)c(-c2ccc(F)cc2)c1C#N             -17.8% (inactive)
 6  CSCCC(CO)NC(=O)OCc1ccccc1 (stereo not given)              2.15% (inactive)
 7  COCCOCCOCCC(=O)NC1CC2CCC1(C)C2(C)C (stereo not given)            -0.452% (inactive)
 8                CC(=O)c1ccc(C#CC(C)(C)O)s1              2.81% (inactive)
 9  CCOC(=O)COn1c(=O)c(-c2ccc(OC)c(OC)c2)[n+]([O-])c2ccccc21              4.19% (inactive)
10  N#CC1=C(SCC(=O)c2ccccc2)NC2=C(C(=O)CCC2)C1c1ccco1 (stereo not given)             -23.9% (inactive)
11  Cn1c(N2CCOCC2)nc2c1c(=O)n(Cc1ccc(Cl)cc1)c(=O)n2C              23.9% (inactive)
12            Cc1nn2cnc3sc4c(c3c2nc1=O)CCCC4             -8.12% (inactive)
13  Cc1nnc2n(Cc3ccccc3)c(=O)c3c4c(sc3n12)CN(Cc1ccccc1)CC4              5.01% (inactive)
14  O=C(CC1SC2=NCCN2C1=O)Nc1ccccc1 (stereo not given)             -5.25% (inactive)
15  CCN(CC)CCCn1c(C)cc2c(c1=O)C(c1ccccc1)C(C#N)=C(N)O2 (stereo not given)              2.65% (inactive)
16               Brc1cccc(-c2cnc3n2CCCCC3)c1             -10.7% (inactive)
17  CCOC(=O)N1CCN(c2ncnc3c2[nH]c2ccc(OC)cc23)CC1             -22.9% (inactive)
18  COCCN(CCOC)C(=O)C12CCC(C)(C(=O)C1)C2(C)C (stereo not given)              3.59% (inactive)
19  CCOC(=O)c1ccc(N2C(=O)CC(Sc3nnc(C)s3)C2=O)cc1 (stereo not given)              1.82% (inactive)
20               OCCCc1nc2ccccc2n1CCc1ccccc1            -0.378% (inactive)
21      O=S(=O)(c1ccccc1)N1CCC(N2CCCCCC2)CC1              4.98% (inactive)
22              COc1ccccc1Nc1ncc(-c2cccs2)s1             -4.45% (inactive)
23  COc1ccc(OC)c(C2/C(=C(\O)c3ccc(OC)c(Cl)c3)C(=O)C(=O)N2CCN(C)C)c1 (stereo not given)             -6.77% (inactive)
24            O=C(O)c1ccc(COCC(F)(F)C(F)F)o1              2.03% (inactive)
25      COc1ccc2c(C)nc(Nc3nc(C)cc(C)n3)nc2c1              7.03% (inactive)
26  COC(=O)c1ccc(-c2sc3nc(N4CCOCC4)c4c(c3c2N)CCCC4)o1             -5.83% (inactive)
27  Cc1ccc(C(=O)NCCCNCCCNC(=O)c2ccc(C)nc2)cn1              5.34% (inactive)
28  CCOC(=O)C1=C(N)n2c(s/c(=C\c3ccco3)c2=O)=C(C(=O)OC(C)C)C1c1ccco1 (stereo not given)              4.26% (inactive)
29                        O=C(O)c1cc2sccc2s1              2.27% (inactive)
30       O=C1CSC(=Nc2ccc(O)cc2)N1c1ccc(O)cc1              13.7% (inactive)
31  CC1(C)Cc2c(c(-c3ccccc3Cl)[nH]c(=O)c2C#N)CO1              2.62% (inactive)
32               C/C(=N\O)C(=O)NCCCNCCCN(C)C              14.2% (inactive)
33  COC(=O)C1=C(C)N=C2SC(C)C(=O)N2C1c1cccc(F)c1 (stereo not given)             -1.23% (inactive)
34     COc1cccc(OC)c1-c1nn2c(-c3ccco3)nnc2s1             -4.43% (inactive)
35  CCN(CC)CCCn1c(C)cc2c(c1=O)C(c1ccc(OC)c(OC)c1OC)C(C#N)=C(N)O2 (stereo not given)              10.3% (inactive)
36  O=C(NC1CCCCC1)[C@H](O)[C@@H](O)C(=O)NC1CCCCC1              4.25% (inactive)
37  CCc1nnc(NC(=O)CSc2nc(C)c3c(c2C#N)CCCC3)s1             -23.4% (inactive)
38  COc1ccc(OC)c(NC(=O)CSc2nnc(-c3ccco3)n2-c2ccc(C(=O)O)cc2)c1             -4.38% (inactive)
39  CN1C[C@@H](C(=O)N[C@]2(C)O[C@]3(O)[C@H]4CCCN4C(=O)[C@H](Cc4ccccc4)N3C2=O)C[C@H]2c3cccc4[nH]cc(c34)C[C@@H]21  -18.4% [at 38 µM] (inactive)
40  CC(C)Cn1nc(NC(=O)C(C)(C)C)c2cc3ccccc3nc21             -6.46% (inactive)
41  COc1ccc(OC)c(C2/C(=C(/O)c3ccccc3)C(=O)C(=O)N2Cc2ccco2)c1 (stereo not given)             -9.05% (inactive)
42  CC1(C)CC(=O)C(C=NCCN2CCN(C(=O)C34CC5CC(CC(C5)C3)C4)CC2)=C(O)C1              7.24% (inactive)
43                    O/N=C1\CCc2cc(Cl)ccc21              6.47% (inactive)
44  CCOC(=O)/C(C#N)=C1\Nc2ccccc2N=C1N(CC(C)C)CC(C)C             -4.73% (inactive)

Data provenance: PubChem BioAssay (NCATS)
